The reported measurements were obtained from patent US20030119814A1.

Assay: Aqueous stability in buffer at 25 degrees Celsius
Assay type: physicochemical
Settings: pH 3.5, 25 degrees Celsius; 35 mM Acetate Buffer, Ionic Strength 0.15M (NaCl)
MEASURED METRIC: half-life

Exam item: half-life lookup needed for CCOC(=O)C(CSN1C(=O)c2ccccc2C1=O)NC(=O)OCc1ccccc1 (stereo not shown) , thanks.
Marked response: 192 to 216 h

* * *

Experiment: Reversion of prodrug to parent on addition of 10 times molar excess of cysteine
Assay type: physicochemical
Conditions: phosphate buffer with 10 times molar excess of cysteine; 10 times molar excess of cysteine added to the phosphate buffer solution
MEASURED METRIC: half-life

Exam item: half-life lookup needed for NC(CSNC(=O)c1ccccc1)C(=O)O (stereo not shown) [Example 13] , thanks.
Marked response: 20 to 30 min
